As shown below, each of these compounds has a reported pEC50 value.
Measured On: human Farnesoid X receptor ligand-binding domain/Gal4 DNA binding domain chimera (Homo sapiens (Human), UniProt Q96RI1)
Sequence (Q96RI1 262-486, change not shown): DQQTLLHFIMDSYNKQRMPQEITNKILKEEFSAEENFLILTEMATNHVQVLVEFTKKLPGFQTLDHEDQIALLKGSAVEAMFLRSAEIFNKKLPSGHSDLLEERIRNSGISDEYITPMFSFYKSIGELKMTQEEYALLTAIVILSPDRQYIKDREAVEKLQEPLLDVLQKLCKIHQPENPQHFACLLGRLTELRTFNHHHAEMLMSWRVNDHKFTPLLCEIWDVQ
Sequence (P04386 1-147 partner): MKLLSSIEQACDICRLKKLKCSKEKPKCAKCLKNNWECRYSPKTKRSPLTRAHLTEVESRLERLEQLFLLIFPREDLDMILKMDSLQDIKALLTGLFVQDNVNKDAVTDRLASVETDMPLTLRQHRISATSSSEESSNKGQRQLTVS
Assay Overview: Cell-based assay of FXR activation (FXR-UAS-bla HEK 293T beta-lactamase reporter)
Condition Info: cellular FXR beta-lactamase reporter assay, FXR-UAS-bla HEK 293T cells, 16 h; pEC50 = -log EC50
Please reply with the value in numeric form only.

Examples with answers:
compound="O=C(O)c1cc([C@H]2C[C@H]3CC[C@@H](C2)O3)c2nc(N3C[C@@H]4C[C@H]3C[C@H]4OCc3c(-c4c(Cl)cccc4Cl)noc3C3CC3)sc2c1 [Compound I-255]" measurement_label=pEC50 value_observed=9.3
compound="O=C(NS(=O)(=O)[C@H]1CC[C@@H](O)CC1)c1ccc(N2C[C@@H]3C[C@H]2C[C@H]3OCc2c(-c3c(Cl)cccc3Cl)noc2C2CC2)cc1 [Compound I-220]" measurement_label=pEC50 value_observed=9.6
compound="O=C(NS(=O)(=O)[C@H]1CC[C@H](O)CC1)c1ccc(N2C[C@@H]3C[C@H]2C[C@H]3OCc2c(-c3c(Cl)cccc3Cl)noc2C2CC2)cc1 [Compound I-221]" measurement_label=pEC50 value_observed=9.5
compound="CC[N+](C)(CC)CCCCCCCCCCS(=O)(=O)NC(=O)c1ccc(N2C[C@@H]3C[C@H]2C[C@H]3OCc2c(-c3c(Cl)cccc3Cl)noc2C2CC2)c(F)c1 [Compound I-226]" measurement_label=pEC50 value_observed=6.6
compound="O=C(O)c1cc([C@@H]2C[C@H]3CC[C@@H](C2)O3)c2nc(N3C[C@@H]4C[C@H]3C[C@H]4OCc3c(-c4c(Cl)cccc4Cl)noc3C3CC3)sc2c1 [Compound I-256]" measurement_label=pEC50 value_observed=9.7

Task item: Identify measured pEC50 associated with O=C(NS(=O)(=O)C1CC1)c1ccc(N2C[C@@H]3C[C@H]2C[C@H]3OCc2c(-c3ccccc3C(F)(F)F)noc2C2CC2)c(F)c1 [Compound I-202]
Reply: 9.4

###

Measured On: ligand binding domain of human FXR (Homo sapiens (Human))
Sequence (Q96RI1 262-486): as the sequence (Q96RI1 262-486, change not shown) above
Assay Overview: FXR ligand binding assay (LanthaScreen TR-FRET, SRC2-2 peptide recruitment)
Condition Info: extent of activation relative to GW4064; read-out: % Efficacy
Measurement Label: Emax (%)
Numbers only; they are read as %.

Examples with answers:
compound=O=C(O)c1ccc(N2C(=O)[C@@H]3C[C@H]2C[C@H]3OCc2c(-c3c(Cl)cccc3Cl)noc2C2CC2)cn1 measurement_label=Emax value_observed=146
compound=CC[C@H]1[C@H]2C[C@H](C[C@@H]2OCc2c(-c3c(Cl)cccc3Cl)noc2C2CC2)N1c1ccc(C(=O)O)cc1 measurement_label=Emax value_observed=56
compound=Cn1nc(C(=O)NS(=O)(=O)C2CC2)cc1N1C[C@@H]2C[C@H]1C[C@H]2OCc1c(-c2c(Cl)cccc2Cl)noc1C1CC1 measurement_label=Emax value_observed=77
compound=O=C(O)CCc1ccc(N2C[C@@H]3C[C@H]2C[C@H]3OCc2c(-c3c(Cl)cccc3Cl)noc2C2CC2)c(F)c1 measurement_label=Emax value_observed=158
compound=O=C(O)CCc1ccc(N2C[C@@H]3C[C@H]2C[C@H]3OCc2c(-c3c(Cl)cccc3Cl)noc2C2CC2)cc1F measurement_label=Emax value_observed=136

Read the next record carefully.
Task item: Identify measured Emax associated with O=C(NS(=O)(=O)CCC1CCOC1)c1ccc(N2C(=O)[C@@H]3C[C@H]2C[C@H]3OCc2c(-c3c(Cl)cccc3Cl)noc2C2CC2)cc1F (stereo partly drawn)
Reply: 182
